- Test system: proliferating TG1 GSCs
- PROCEDURE TEXT: ATP-Glo dose-response, proliferating TG1 GSCs
- Format: cell-based, human
- ASSAY CONTEXT: Homo sapiens, 24 h, ATP Glo readout, 24 h treatment, n = 3; read-out: P TG1 GSCs EC50
Structures can show the parent of a compound that is named as a salt.
RESULT TYPE: EC50

Cc1c2ccncc2c(C)c2c1[nH]c1ccccc12: 13 µM

q: Provide proliferating TG1 GSCs EC50 reading for C#C[C@]1(O)CC[C@H]2[C@@H]3CCC4=CCCC[C@@H]4[C@H]3CC[C@@]21C .
a: 36 µM

q: Give proliferating TG1 GSCs EC50 for the following compound: CC(Cc1ccccc1)NCCC(c1ccccc1)c1ccccc1 (centres unmarked) [Prenylamine lactate]
a: 22 µM

q: Jot down EC50 (proliferating TG1 GSCs) of C1CCC(C(CC2CCCCN2)C2CCCCC2)CC1 (centres unmarked) [Perhexilin maleate] .
a: 10 µM

q: # lookup: proliferating TG1 GSCs EC50, key = CCOC(=O)C1=C(C)NC(C)=C(C(=O)OC)C1c1cccc(Cl)c1Cl (centres unmarked)
a: 38 µM

q: Tell me its EC50 on proliferating TG1 GSCs: C=C1C(=O)O[C@H]2[C@H]1CC/C(C)=C/CC[C@@]1(C)O[C@@H]21 [Parthenolide]
a: 15 µM

q: State recorded EC50 with proliferating TG1 GSCs, entry CCCCCCCCNC(C)C(O)c1ccc(SC(C)C)cc1 (centres unmarked) , no comment.
a: 11 µM

q: Provide proliferating TG1 GSCs EC50 reading for CC(NCCC(c1ccccc1)c1ccccc1)c1ccccc1 (centres unmarked) [Fendiline hydrochloride] .
a: 22 µM

q: # assay system proliferating TG1 GSCs: give EC50 of O=c1cc(-c2ccc(O)c(O)c2)oc2cc(O)cc(O)c12 [Luteolin, 3',4',5,7-tetrahydroxy-flavone]
a: > 100 µM

q: Provide the reported EC50 (system: proliferating TG1 GSCs) for C=C(CC)C(=O)c1ccc(OCC(=O)O)c(Cl)c1Cl
a: 81 µM

q: Give EC50 for this entry on proliferating TG1 GSCs: CC(=O)Oc1ccc(C(c2ccc(OC(C)=O)cc2)c2ccccn2)cc1
a: > 100 µM

q: Give the observed EC50 of CC(=O)[C@H]1CC[C@H]2[C@@H]3CCC4=CC(=O)CC[C@]4(C)[C@H]3CC[C@]12C for proliferating TG1 GSCs.
a: > 100 µM

q: // output EC50; input CC(C)(C)c1ccc(C(O)CCCN2CCC(C(O)(c3ccccc3)c3ccccc3)CC2)cc1 (centres unmarked) ; system proliferating TG1 GSCs
a: ~10 µM

q: Quote proliferating TG1 GSCs EC50 for entry OCCN1CCN(CC/C=C2/c3ccccc3Sc3ccc(Cl)cc32)CC1 [Zuclopenthixol hydrochloride] .
a: 20 µM

----------
- System: quiescent TG16 GSCs
- PROCEDURE TEXT: ATP-Glo dose-response, quiescent TG16 GSCs
- Type: cell-based, human
- ASSAY CONTEXT: Homo sapiens; ATP Glo readout, 24 h treatment; read-out: Q TG16 GSCs EC50
Counter-ions that a name gives are not always drawn.
The following compounds are listed with their measured pEC50 values.
Entry type: numeric. Quantity: pEC50, the -log10 of concentration in molar units.

CC[C@H](C)[C@H]1O[C@]2(CC[C@@H]1C)C[C@@H]1C[C@@H](C/C=C(\C)[C@@H](O[C@H]3C[C@H](OC)[C@@H](O[C@H]4C[C@H](OC)[C@@H](O)[C@H](C)O4)[C@H](C)O3)[C@@H](C)/C=C/C=C3\CO[C@@H]4[C@H](O)C(C)=C[C@@H](C(=O)O1)[C@]34O)O2 [Ivermectin]: 5.22
CC(=O)[C@H]1CC[C@H]2[C@@H]3CCC4=CC(=O)CC[C@]4(C)[C@H]3CC[C@]12C [Progesterone]: 4.60
O=c1cc(-c2ccc(O)c(O)c2)oc2cc(O)cc(O)c12 [Luteolin, 3',4',5,7-tetrahydroxy-flavone]: 4.47
CC(NCCC(c1ccccc1)c1ccccc1)c1ccccc1 (stereo not drawn) [Fendiline hydrochloride]: 4.35
CC(C)(C)c1ccc(C(O)CCCN2CCC(C(O)(c3ccccc3)c3ccccc3)CC2)cc1 (stereo not drawn) [Terfenadine]: 4.62

q: Look up and report measured pEC50 (quiescent TG16 GSCs) for the following compound: CC(Cc1ccccc1)NCCC(c1ccccc1)c1ccccc1 (stereo not drawn) [Prenylamine lactate]
a: 4.38
